Biological target: human M1 receptor (hCHRM1) (Homo sapiens)
Construct: expressed in transfected cells; host or cells: CHO-K1
Sequence (P11229 1-460): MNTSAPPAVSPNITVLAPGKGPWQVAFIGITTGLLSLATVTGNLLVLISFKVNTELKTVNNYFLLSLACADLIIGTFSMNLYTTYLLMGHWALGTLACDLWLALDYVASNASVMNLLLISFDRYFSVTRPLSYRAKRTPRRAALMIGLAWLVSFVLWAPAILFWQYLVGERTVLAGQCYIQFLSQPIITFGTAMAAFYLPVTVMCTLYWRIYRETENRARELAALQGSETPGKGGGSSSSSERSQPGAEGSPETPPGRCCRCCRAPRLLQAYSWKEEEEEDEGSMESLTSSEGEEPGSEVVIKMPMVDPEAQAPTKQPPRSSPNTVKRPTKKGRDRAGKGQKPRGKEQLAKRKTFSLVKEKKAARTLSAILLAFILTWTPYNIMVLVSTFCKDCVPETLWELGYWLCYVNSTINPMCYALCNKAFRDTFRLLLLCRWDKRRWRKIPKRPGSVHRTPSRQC
Experiment: Measurement of M1 receptor positive allosteric modulator (M1PAM) activity, calcium fluorescence (FLIPRtetra) in CHO-K1 cells in the presence of acetylcholine at EC20
Type: cell-based
Details: test compound 10 μM, in the presence of acetylcholine at EC20 (final 0.6 nM), CHO-K1 cells expressing hCHRM1
// activity (%) at 10 μM lookup, one value per entry
Numeric answer only, unit % assumed.

These recorded examples may help you get a feel for the data.
# compound, tested target, unit info, activity (%) at 10 μM
records = [
    ("Cn1cc(-c2ccc(CN3Cc4cccc(Oc5ccc(C(O)C(F)(F)F)cc5F)c4C3=O)nc2)cn1 (stereo not drawn)", "human M1 receptor (hCHRM1) (Homo sapiens)", "%", 93),
    ("O=C1c2c(ncnc2Oc2ccc(C(F)(F)F)cc2F)CN1Cc1ccc(-c2ccnnc2)cc1", "human M1 receptor (hCHRM1) (Homo sapiens)", "%", 89),
]

--- query ---
Name the recorded activity (%) at 10 μM of the item Cn1ccc(-c2ccc(CN3Cc4ncnc(Oc5ccc(C#N)cc5F)c4C3=O)cc2)n1 in your answer.
99

----------
Target: human M1 receptor (hCHRM1) (Homo sapiens, UniProt P11229)
Assay: Measurement of M1 receptor positive allosteric modulator (M1PAM) activity, calcium fluorescence (FLIPRtetra) in CHO-K1 cells in the presence of acetylcholine at EC20
Conditions: inflection point of M1PAM activity, in the presence of acetylcholine at EC20 (final 0.6 nM), CHO-K1 cells expressing hCHRM1; read-out: IP value
property label: pEC50
pEC50 here is simply -log10 of the concentration when that concentration is written in mol/L.

# compound, pEC50
measured = [
    ("Cn1cc(-c2ccc(CN3Cc4cccc(O[C@H]5CCC[C@@H]5O)c4C3=O)cc2)cn1 (relative stereo)", 7.89),
    ("C[C@@H](O)[C@@H](C)Oc1nccc2c1C(=O)N(Cc1ccc(Cl)cc1)C2", 7.05),
]

# return recorded pEC50 for input Cn1ccc(-c2ccc(CN3Cc4cccc(O[C@@H]5COCC[C@H]5O)c4C3=O)cc2)n1
8.07

Provide pEC50 value for the following compound: O=C1c2c(ccnc2OCC2CCCO2)CN1Cc1ccc(-n2cc(F)cn2)cc1 (stereo not shown)
7.42

Query pEC50 for Cn1ccc(-c2ccc(CN3Cc4ccnc(Oc5c(F)cc(C#N)cc5F)c4C3=O)c(F)c2)n1
8.15

For the compound O=C1c2c(cccc2OCC2CCCO2)CN1Cc1ccc(-n2cccn2)cc1 (stereo not shown) , give its measured pEC50 value.
6.57

# return recorded pEC50 for input CNC(=O)c1ccc(CN2Cc3ccnc(Oc4ccc(CC(F)(F)F)cc4F)c3C2=O)cc1
8.07

Please report the measured pEC50 for O=C1c2c(ccnc2OCC2CCCO2)CN1Cc1ccc(-n2cccn2)cc1 (stereo not shown)
7.43

For Cc1nn(C)cc1-c1ccc(CN2Cc3ccnc(OCC(F)(F)c4ccccn4)c3C2=O)c(F)c1 , write its pEC50.
8.00

Give pEC50 for the following compound: Cn1cc(-c2ccc(CN3Cc4cccc(Oc5c(F)cc(C#N)cc5F)c4C3=O)nc2)cn1
8.12

Name the recorded pEC50 of the compound listed here: Cc1nn(C)cc1-c1ccc(CN2Cc3cccc(O[C@@H]4CCOC[C@H]4O)c3C2=O)cc1 (single isomer, unassigned)
8.52

For the compound Cc1nn(C)cc1-c1ccc(CN2Cc3ccnc(OCC4(C)CC4)c3C2=O)c(F)c1 , give its reported pEC50.
7.20

Consider the compound CC(Oc1nccc2c1C(=O)N(Cc1ccc(-c3cn(C)nn3)cc1F)C2)c1ccccc1F (stereo not shown) . State its measured pEC50.
7.19

Look up and state reported pEC50 for CCc1ccc(Oc2nccc3c2C(=O)N(Cc2ccc(C(=O)NC)cc2)C3)c(F)c1
7.77

Specify reported pEC50 for the compound shown: Cn1cc(-c2cccc(CN3Cc4cccc(O[C@H]5CCCC[C@@H]5O)c4C3=O)c2)cn1 (relative stereo)
7.24

Output pEC50 of CC(O)c1ccc(Oc2nccc3c2C(=O)N(Cc2ccc(-c4cnn(C)c4)cc2)C3)c(F)c1 (stereo not shown)
8.15

Quickly give me recorded pEC50 for Cn1cc(-c2ccc(CN3Cc4ccnc(OCC5CCC5)c4C3=O)c(F)c2)nn1
7.39

// Input: CNC(=O)c1ccc(CN2Cc3ccnc(Oc4ccc(C5CC5)cc4F)c3C2=O)cc1 . Output its pEC50 only.
8.28

Read off the recorded pEC50 for CCC(CO)Oc1nccc2c1C(=O)N(Cc1ccc(-c3cn(C)nc3C)cc1)C2 (single isomer, unassigned) [Example 275]
7.12
